# procedureDetails: gradient 5% acetonitrile 3 min, to 50% in 2 min, to 85% in 15 min, held 3 min, 100 µL/min
# testContext: column: Zorbax Extend-C18 2.1 x 50 mm; eluents: water / acetonitrile, 0.1% formic acid
satisfied means recorded RP-LC retention time is 700 s or above; not satisfied means it is below 700 s.

Some entries whose results are on file:
>  <compound>
Cc1ccc(S(=O)(=O)N2CCC(n3c(-c4ccco4)nc4cccnc43)C2)cc1F (stereo not drawn)

>  <label>
satisfied

$$$$
>  <compound>
CCCOCCOC(=O)C1=C(C)NC2=C(C(=O)C(C(=O)OC)C(C)C2)C1c1cccc(F)c1 (stereo not drawn)

>  <label>
satisfied

$$$$
>  <compound>
Cc1cccc(CNC(=O)c2cn3ccc(C)cc3n2)c1

>  <label>
not satisfied

$$$$

API: above_or_equal(metric=RP-LC retention time, cutoff=700 s) for item O=C(CSc1nnc(CCc2nc3ccccc3[nH]2)o1)NCCc1ccc(Cl)cc1 not satisfied

API: above_or_equal(metric=RP-LC retention time, cutoff=700 s) for item COc1ccc(S(=O)(=O)N2CCC(n3cnc4c(C)cccc4c3=O)CC2)cc1OC satisfied

API: above_or_equal(metric=RP-LC retention time, cutoff=700 s) for item Cc1ccc(Oc2nccnc2N2CCC(C(=O)NCCCN3CCOCC3)CC2)cc1 not satisfied

API: above_or_equal(metric=RP-LC retention time, cutoff=700 s) for item O=C(C1CCN(c2cc(N3CCCCC3)ncn2)CC1)N1CCN(c2ccccc2)CC1 satisfied

API: above_or_equal(metric=RP-LC retention time, cutoff=700 s) for item CC(C)CN(C1CCOCC1)C1CN(C(=O)Nc2ccccc2)C1 not satisfied

API: above_or_equal(metric=RP-LC retention time, cutoff=700 s) for item CCn1nc(C)c(CCNC(=O)Nc2ccccc2C(=O)OC)c1C not satisfied

API: above_or_equal(metric=RP-LC retention time, cutoff=700 s) for item Fc1ccc(N2CCN(Cc3nc(-c4ccccc4)no3)CC2)cc1 satisfied

API: above_or_equal(metric=RP-LC retention time, cutoff=700 s) for item Cc1sc(NC(=O)c2ccc(S(=O)(=O)N(C)C)cc2)nc1-c1ccc2c(c1)NC(=O)CO2 satisfied

API: above_or_equal(metric=RP-LC retention time, cutoff=700 s) for item COc1cc(NC(=O)C2CCN(C(=O)c3ncn4c3COC(c3ccccc3)C4)CC2)cc(OC)c1 (stereo not drawn) satisfied
